Data origin: ChEMBL document CHEMBL4118177

System: MIA PaCa-2
Experiment Description: Cytotoxicity against human MIAPaCa2 cells assessed as reduction in cell viability after 48 hrs by MTT assay
Type: functional, cell-based
Condition Description: MIA PaCa-2, 48 h
Quantity Measured: IC50 (µM)
# unit: µM | format: bare number

CCC[C@@H]1C[C@H](O)[C@@H](OC)/C=C/C=C\C(=O)O1	34
CC(=O)O[C@H]1C(=O)[C@@]2(C)[C@H]([C@H](OC(=O)c3ccccc3)[C@]3(O)C[C@H](OC(=O)[C@H](O)[C@@H](NC(=O)c4ccccc4)c4ccccc4)C(C)=C1C3(C)C)[C@]1(OC(C)=O)CO[C@@H]1C[C@@H]2O	0.006
CCC[C@@H]1C[C@H](O)[C@@H](O)/C=C/C=C\C(=O)O1	32

Fill in: MIA PaCa-2 IC50 for CCC[C@H]1OC(=O)/C=C\C=C\[C@H](O)[C@@H](O)[C@@H]1[C@H](C)COC(=O)c1ccc(O)cc1 = 20

---

System: MCF7
Experiment Description: Cytotoxicity against human MCF7 cells assessed as reduction in cell viability after 48 hrs by MTT assay
Format: functional, cell-based
Condition Description: MCF7, 48 h
In this section we review reported IC50 values for a set of molecules.

molecule CCC/C=C/[C@@H]1OC(=O)c2cc(O)cc(O)c2[C@@H]1O , IC50 observed: > 50 µM

molecule CCC[C@H]1OC(=O)/C=C\C=C\[C@H](O)[C@@H](O)[C@@H]1[C@H](C)COC(=O)c1ccc(O)cc1 , IC50 observed: 30 µM

molecule CCC[C@@H]1C[C@H](O)[C@@H](O)/C=C/C=C\C(=O)O1 , IC50 observed: 29 µM

molecule CCC[C@@H]1C[C@H](O)[C@@H](OC)/C=C/C=C\C(=O)O1 , IC50 observed: > 50 µM

---

Experiment Description: Antioxidant activity assessed as DPPH free radical scavenging activity at 100 uM after 30 mins in dark by spectrophotometric method relative to control
Format: functional
Decide by Activity: equal to or exceeding 60% means Fulfilled, less means Not fulfilled.

Worked examples follow.
CCC[C@@H]1C[C@H](O)[C@@H](O)/C=C/C=C\C(=O)O1	Not fulfilled
CCC[C@H]1OC(=O)/C=C\C=C\[C@H](O)[C@@H](O)[C@@H]1[C@H](C)COC(=O)c1ccc(O)cc1	Fulfilled
CCC[C@@H]1C[C@H](O)[C@@H](OC)/C=C/C=C\C(=O)O1	Not fulfilled

Problem: Decide: is the reported value of Activity for O=C1O[C@H]([C@@H](O)CO)C(O)=C1O [ASCORBIC ACID] equal to or greater than 60%?
Solution: Fulfilled
